# tested system: Heat shock protein HSP90 (Homo sapiens, UniProt P07900+P08238)
# test: Binding affinity to recombinant […] HSP90 N-terminal domain (9 to 236 residues) (unknown origin) expressed in Escherichia coli BL21 (DE3) by isothermal calorimetric method
Response field label takes TRUE when Kd is strictly below 2000 nM and FALSE in all other cases.

These recorded examples may help you get a feel for the data.
[
  {
    "smiles record": "Cc1cc(C)c(S(=O)(=O)N(CC(=O)NO)c2ccc(Nc3ccnc(N4CCNCC4)n3)cc2)c(C)c1",
    "class": "FALSE"
  },
  {
    "smiles record": "Cc1cc(C)c(S(=O)(=O)N(Cc2nnn[nH]2)c2ccc(Nc3ccnc(N4CCNCC4)n3)cc2)c(C)c1",
    "class": "FALSE"
  },
  {
    "smiles record": "COC(=O)CN(c1ccc(Nc2ccnc(N3CCNCC3)n2)cc1)S(=O)(=O)c1c(C)cc(C)cc1C",
    "class": "TRUE"
  }
]

Q) Dear reviewer, please state whether Cc1cc(C)c(S(=O)(=O)N(CC(=O)O)c2ccc(Nc3ccnc(N4CCCC4)n3)cc2)c(C)c1 has Kd strictly beneath 2000 nM.
A) FALSE

Q) For this compound, is Kd lower than 2000 nM? Cc1cc(C)c(S(=O)(=O)N(CC(=O)O)c2ccc(Nc3ccnc(N4CCNCC4)n3)cc2)c(C)c1
A) TRUE

====

For each record, write down the corresponding inhibition.
# tested system: Heat shock protein HSP 90-beta/Hsp90 co-chaperone Cdc37 (Homo sapiens) (UniProt P08238+Q16543)
# test: Inhibition of His-tagged HSP90/GST-tagged Cdc37 (unknown origin) protein-protein interaction at 100 uM measured after 1 hr by HTRF assay relative to control
# Format: protein-complex assay
One number for each entry, in %.

Consider the worked cases shown below.
[
  {
    "smiles record": "Cc1cc(C)c(S(=O)(=O)N(CC(=O)O)c2ccc(Nc3ccnc(N4CCNCC4)n3)cc2)c(C)c1",
    "inhibition [%]": 97.4
  },
  {
    "smiles record": "Cc1cc(C)c(S(=O)(=O)N(Cc2ccc(C(=O)O)cc2)c2ccc(Nc3ccnc(N4CCCC4)n3)cc2)c(C)c1",
    "inhibition [%]": 52.8
  },
  {
    "smiles record": "COC(=O)CN(c1ccc(Nc2ccnc(N3CCCCC3)n2)cc1)S(=O)(=O)c1c(C)cc(C)cc1C",
    "inhibition [%]": 79.1
  },
  {
    "smiles record": "Cc1cc(C)c(S(=O)(=O)Nc2ccc(Nc3ccnc(N4CCCC4)n3)cc2)c(C)c1",
    "inhibition [%]": 66
  },
  {
    "smiles record": "Cc1cc(C)c(S(=O)(=O)N(CC(=O)O)c2ccc(Nc3ccnc(N4CCCCC4)n3)cc2)c(C)c1",
    "inhibition [%]": 86.2
  }
]

For each of the compounds below, state inhibition.
1. COc1ccc(OC)c(S(=O)(=O)Nc2ccc(Nc3ccnc(N4CCCC4)n3)cc2)c1
2. COC(=O)CN(c1ccc(Nc2ccnc(N3CCCC3)n2)cc1)S(=O)(=O)c1c(C)cc(C)cc1C
3. Cc1cc(C)c(S(=O)(=O)N(CC#N)c2ccc(Nc3ccnc(N4CCNCC4)n3)cc2)c(C)c1

A)
1. 41.8
2. 65.4
3. 64.3

// for each compound below, give its inhibition
1. COc1cc(S(=O)(=O)Nc2ccc(Nc3ccnc(N4CCCC4)n3)cc2)c(C)cc1C
2. O=S(=O)(Nc1ccc(Nc2ccnc(N3CCCC3)n2)cc1)c1ccc2ccccc2c1
3. CCN(CC)c1nccc(Nc2ccc(N(CC(=O)O)S(=O)(=O)c3c(C)cc(C)cc3C)cc2)n1
4. COC(=O)CN(c1ccc(Nc2ccnc(N3CCNCC3)n2)cc1)S(=O)(=O)c1c(C)cc(C)cc1C

A)
1. 56.3
2. 46.7
3. 79.6
4. 95.5

Dear reader, for each entry below, please note its inhibition.
1. Cc1cc(C)c(S(=O)(=O)N(CC(=O)NO)c2ccc(Nc3ccnc(N4CCNCC4)n3)cc2)c(C)c1
2. Cc1cc(C)c(S(=O)(=O)N(Cc2nnn[nH]2)c2ccc(Nc3ccnc(N4CCNCC4)n3)cc2)c(C)c1
3. Cc1cc(C)c(S(=O)(=O)N(CC(=O)O)c2ccc(Nc3ccnc(N4CCCC4)n3)cc2)c(C)c1
4. COc1ccc(S(=O)(=O)Nc2ccc(Nc3ccnc(N4CCCC4)n3)cc2)c(OC)c1

A)
1. 96.2
2. 98.6
3. 72.6
4. 36.2

Field: inhibition. Fill in for each record below.
1. Cc1cc(C)c(S(=O)(=O)N(CC(=O)O)c2ccc(Nc3ccnc(N4CCN(C)CC4)n3)cc2)c(C)c1
2. COC(=O)CN(c1ccc(Nc2ccnc(N3CCN(C)CC3)n2)cc1)S(=O)(=O)c1c(C)cc(C)cc1C

A)
[71.1, 70.1]

====

# test: AUC (0 to infinity) in plasma of human HCT116 cells xenografted BALB/c mouse at 80 mg/kg, po administered as single dose by LC-MS/MS analysis
# Assay type: ADME, organism-based
# Set-up: dose 80 mg/kg, time infinity, route oral
result type: AUC(0-inf) (µg·h/mL)
Give bare numbers, in µg·h/mL.

Q) Which AUC(0-inf) is listed for Cc1cc(C)c(S(=O)(=O)N(CC(=O)O)c2ccc(Nc3ccnc(N4CCNCC4)n3)cc2)c(C)c1 ?
A) 536

====

# test: Stability of the compound in mouse plasma assessed as parent compound remaining at 1 uM measured after 60 mins by LC-MS/MS analysis
# Assay type: ADME, cell-free
# measurement conditions: read-out: Stability
result type: remaining at 1 h, 1 µM (%)
Give bare numbers, in %.

[
  {
    "smiles record": "Cc1cc(C)c(S(=O)(=O)N(CC(=O)O)c2ccc(Nc3ccnc(N4CCCC4)n3)cc2)c(C)c1",
    "result type": "remaining at 1 h, 1 µM",
    "unit name": "%",
    "result number": 71
  }
]

Q) Which remaining at 1 h, 1 µM is reported for this molecule? Cc1cc(C)c(S(=O)(=O)N(CC(=O)O)c2ccc(Nc3ccnc(N4CCNCC4)n3)cc2)c(C)c1
A) 101

====

# test: Permeability of the compound at pH 7.4 by PAMPA
# Type: ADME
# measurement conditions: read-out: permeability
result type: Papp

Worked set:
[
  {
    "smiles record": "Cc1cc(C)c(S(=O)(=O)N(CC(=O)O)c2ccc(Nc3ccnc(N4CCNCC4)n3)cc2)c(C)c1",
    "Papp": "104 ×10⁻⁶ cm/s"
  },
  {
    "smiles record": "COc1cc(S(=O)(=O)Nc2ccc(Nc3ccnc(N4CCCC4)n3)cc2)c(C)cc1C",
    "Papp": "65.9 ×10⁻⁶ cm/s"
  },
  {
    "smiles record": "Cc1cc(C)c(S(=O)(=O)N(CC#N)c2ccc(Nc3ccnc(N4CCNCC4)n3)cc2)c(C)c1",
    "Papp": "61.5 ×10⁻⁶ cm/s"
  },
  {
    "smiles record": "COC(=O)CN(c1ccc(Nc2ccnc(N3CCNCC3)n2)cc1)S(=O)(=O)c1c(C)cc(C)cc1C",
    "Papp": "101 ×10⁻⁶ cm/s"
  },
  {
    "smiles record": "Cc1cc(C)c(S(=O)(=O)N(CC(=O)NO)c2ccc(Nc3ccnc(N4CCNCC4)n3)cc2)c(C)c1",
    "Papp": "44.1 ×10⁻⁶ cm/s"
  }
]

Could you report Papp for every entry in the following list?
1. Cc1cc(C)c(S(=O)(=O)N(Cc2nnn[nH]2)c2ccc(Nc3ccnc(N4CCNCC4)n3)cc2)c(C)c1
2. Cc1cc(C)c(S(=O)(=O)N(CC(=O)O)c2ccc(Nc3ccnc(N4CCCC4)n3)cc2)c(C)c1

A)
1. 55.4 ×10⁻⁶ cm/s
2. 70.4 ×10⁻⁶ cm/s

====

Please provide measured half-life at 10 µM for the entries that follow.
# test: Half life in mouse liver microsomes at 10 uM preincubated for 5 mins followed by NADPH addition by LC-MS/MS analysis
# Assay type: ADME, Microsome
Give bare numbers, in min.

[
  {
    "smiles record": "Cc1cc(C)c(S(=O)(=O)N(CC(=O)O)c2ccc(Nc3ccnc(N4CCNCC4)n3)cc2)c(C)c1",
    "half-life at 10 µM (min)": 96.3
  }
]

In the following, a different compound is considered.
Q) Can you look up the measured half-life at 10 µM of Cc1cc(C)c(S(=O)(=O)N(CC(=O)O)c2ccc(Nc3ccnc(N4CCCC4)n3)cc2)c(C)c1 for me?
A) 16.8

====

Would you kindly list ΔTm for each of these compounds?
# tested system: Heat shock protein HSP90 (Homo sapiens, UniProt P07900+P08238)
# test: Binding affinity to recombinant […] HSP90 N-terminal domain (9 to 236 residues) (unknown origin) expressed in Escherichia coli BL21 (DE3) assessed as change in melting temperature by SYPRO dye based thermal shift assay
Numbers only, in °C.

Known results for compounds:
[
  {
    "smiles record": "Cc1cc(C)c(S(=O)(=O)N(CC#N)c2ccc(Nc3ccnc(N4CCNCC4)n3)cc2)c(C)c1",
    "unit name": "°C",
    "ΔTm": 1.1
  },
  {
    "smiles record": "Cc1cc(C)c(S(=O)(=O)N(CC(=O)NO)c2ccc(Nc3ccnc(N4CCNCC4)n3)cc2)c(C)c1",
    "unit name": "°C",
    "ΔTm": 1.59
  },
  {
    "smiles record": "Cc1cc(C)c(S(=O)(=O)N(CC(=O)O)c2ccc(Nc3ccnc(N4CCNCC4)n3)cc2)c(C)c1",
    "unit name": "°C",
    "ΔTm": 4.75
  },
  {
    "smiles record": "Cc1cc(C)c(S(=O)(=O)N(CC(=O)O)c2ccc(Nc3ccnc(N4CCCC4)n3)cc2)c(C)c1",
    "unit name": "°C",
    "ΔTm": 2.13
  }
]

Would you be so kind as to report ΔTm for each listed record?
1. Cc1cc(C)c(S(=O)(=O)N(Cc2nnn[nH]2)c2ccc(Nc3ccnc(N4CCNCC4)n3)cc2)c(C)c1
2. COC(=O)CN(c1ccc(Nc2ccnc(N3CCNCC3)n2)cc1)S(=O)(=O)c1c(C)cc(C)cc1C

A)
1.36
3.53
